test target: Cholinesterase (Equus caballus)
Sequence (P81908 whole entry): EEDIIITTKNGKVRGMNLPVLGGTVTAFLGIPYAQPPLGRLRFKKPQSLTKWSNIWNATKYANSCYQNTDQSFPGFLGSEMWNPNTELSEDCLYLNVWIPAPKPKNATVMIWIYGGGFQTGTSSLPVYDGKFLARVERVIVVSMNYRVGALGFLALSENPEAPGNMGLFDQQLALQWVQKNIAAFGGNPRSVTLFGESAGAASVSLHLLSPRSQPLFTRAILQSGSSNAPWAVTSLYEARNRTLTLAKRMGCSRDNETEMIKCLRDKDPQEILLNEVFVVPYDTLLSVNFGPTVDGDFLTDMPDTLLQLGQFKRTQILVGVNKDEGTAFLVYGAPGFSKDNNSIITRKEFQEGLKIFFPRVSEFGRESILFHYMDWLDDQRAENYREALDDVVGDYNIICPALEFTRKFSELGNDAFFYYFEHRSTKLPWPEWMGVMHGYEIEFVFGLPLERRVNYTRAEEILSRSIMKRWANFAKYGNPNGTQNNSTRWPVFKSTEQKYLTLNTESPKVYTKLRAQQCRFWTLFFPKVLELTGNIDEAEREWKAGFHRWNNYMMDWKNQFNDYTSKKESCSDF
assay summary: Inhibition of equine serum BuChE using butyrylthiocholine iodide as substrate preincubated with enzyme for 20 mins followed by addition of substrate and measured after 20 mins by DTNB reagent based Ellman's method
pIC50: −log10 of the molar value.
Here, each record is paired with measured pIC50 data.
metric: pIC50

> print(dat)
                         chemical.structure  metric  result.value
1  O=S1(=O)CCc2c(CN(CCO)Cc3cccc(Br)c3)nn(-c3ccccc3F)c2O1   pIC50          6.48
2  CCN(Cc1ccc(Br)cc1)Cc1nn(-c2ccccc2F)c2c1CCS(=O)(=O)O2   pIC50          7.15
3  O=S1(=O)CCc2c(CN(CCO)Cc3ccccc3)nn(-c3ccccc3Cl)c2O1   pIC50          7.40
4  CN(Cc1ccccc1)Cc1nn(-c2ccccc2F)c2c1CCS(=O)(=O)O2   pIC50          7.10
5      O=S1(=O)CCc2c(CCl)nn(-c3ccccc3F)c2O1   pIC50          6.72
6  O=S1(=O)CCc2c(-c3ccc(Br)cc3)nn(-c3ccccc3Cl)c2O1   pIC50          5.43
7  COCCN(Cc1ccc(Cl)cc1)Cc1nn(-c2ccccc2F)c2c1CCS(=O)(=O)O2   pIC50          7.05

----------
assay summary: Octanol/Water partition coefficient, log P of the compound in PBS buffer at pH7.4 measured after 48 hrs by shake flask method
Format: physicochemical
measurement parameters: pH 7.4
metric: logD at 48 h

> print(dat)
                         chemical.structure  result.value
1  CN(Cc1ccccc1)Cc1nn(-c2ccccc2F)c2c1CCS(=O)(=O)O2          1.78
2  O=S1(=O)CCc2c(CN(CCO)Cc3ccccc3)nn(-c3ccccc3F)c2O1          2.05
3  CCN(Cc1ccccc1)Cc1nn(-c2ccccc2F)c2c1CCS(=O)(=O)O2             2
4  O=S1(=O)CCc2c(CN(CCO)Cc3ccc(Br)cc3)nn(-c3ccccc3F)c2O1          1.93
5    O=S1(=O)CCc2c(C3CC3)nn(-c3ccccc3F)c2O1          2.09
6  O=S1(=O)CCc2c(CN(CCO)Cc3ccc(F)cc3)nn(-c3ccccc3F)c2O1          2.42

----------
test target: Cholinesterase (Equus caballus)
assay summary: Inhibition of equine serum BuChE using butyrylthiocholine iodide as substrate preincubated with enzyme for 20 mins followed by addition of substrate and measured after 20 mins by DTNB reagent based Ellman's method
Recorded IC50 for the following compounds
metric: IC50 (nM)

> print(dat)
                          chemical.structure  result.value
 1  O=S1(=O)CCc2c(CN(CCO)Cc3ccc(Cl)cc3)nn(-c3ccccc3F)c2O1            90
 2   O=S1(=O)CCc2c(C3CC3)nn(-c3ccccc3Cl)c2O1           180
 3  CN(Cc1ccccc1)Cc1nn(-c2ccccc2Cl)c2c1CCS(=O)(=O)O2            70
 4  O=S1(=O)CCc2c(-c3ccccc3)nn(-c3ccccc3F)c2O1           180
 5  O=S1(=O)CCc2c(CN3CCOCC3)nn(-c3ccccc3Cl)c2O1           410
 6  CCN(Cc1ccc(F)cc1)Cc1nn(-c2ccccc2F)c2c1CCS(=O)(=O)O2            70
 7  COc1ccc(-c2nn(-c3ccc(Cl)cc3)c3c2CCS(=O)(=O)O3)cc1          8780
 8  O=S1(=O)CCc2c(-c3ccc(F)cc3)nn(-c3ccccc3Cl)c2O1           130
 9  CCN(Cc1ccccc1)Cc1nn(-c2ccccc2Cl)c2c1CCS(=O)(=O)O2            50
10  O=S1(=O)CCc2c(C3CC3)nn(-c3cccc(Cl)c3)c2O1           700
11  CN(Cc1ccc(Br)cc1)Cc1nn(-c2ccccc2F)c2c1CCS(=O)(=O)O2            70
12  O=S1(=O)CCc2c(CN3CCOCC3)nn(-c3ccccc3F)c2O1           150
13  CCN(Cc1ccc(Cl)cc1)Cc1nn(-c2ccccc2F)c2c1CCS(=O)(=O)O2            40
